Source: PubChem BioAssay (NCI)

Reported TGI by item:
tested on: MDA-N; experiment: NCI tumour cell line growth inhibition, 48 h

Example cases with answers are listed next.
# compound, assayed target, TGI
data = [
    ("CC(=O)OC1COC(n2c3ccccc3c3ccc4c5ccccc5[nH]c4c32)C(OC(C)=O)C1OC(C)=O (stereo not given)", "MDA-N", "> 100 µM"),
    ("CCCCCC(=O)n1[nH]c(=O)n(-c2ccc(OC)cc2)c1=O", "MDA-N", "> 100 µM"),
    ("CCN(CC)S(=O)(=O)c1ccc2nc(NC(=O)OC)[nH]c2c1", "MDA-N", "65.9 µM"),
    ("O=C(NNc1cn[nH]c(=O)n1)c1cccc2nc3ccccc3nc12", "MDA-N", "> 100 µM"),
]

Could you now look at the following compound, please?
Reported TGI, compound c1ccc2c(c1)CN1CCCC1CN2 (stereo not given) : ____
> 100 µM
